Would you kindly list log10 of IC50 for each of these compounds?
tested on: A673 cells; experiment: Cytotoxicity in A673 cells (Cell Titer Glo viability); format: cell-based; settings: Homo sapiens, A673; read-out: Cellular Potency IC50 (nM) (in A673 cells)
Base-10 log of IC50, unit nM.

Take a look at these entries with their results.
In [3]: df
Out[3]:
                            chemical_smiles    val
0  Cc1cccnc1-c1ccc(CNc2cc(NC[C@H]3CCNC[C@@H]3O)nc3c(C(C)C)cnn23)cc1   1.15
1  c1ccc(-c2ccc(CNc3cc(N[C@@H]4CCNC4)nc4c(C5CC5)cnn34)cc2)nc1   1.14
2  Fc1cc(-c2ccccn2)ccc1CNc1cc(N[C@H]2CCNC2)nc2c(C3CC3)cnn12  -0.10
3  N#Cc1cnn2c(NCc3ccc(-c4ccccc4)cc3F)cc(NC[C@H]3CCNC[C@@H]3O)nc12   0.72
4  c1ccc(-c2ccc(CNc3cc(N4CC5CC(C4)N5)nc4c(C5CC5)cnn34)cc2)nc1   1.10
5  COc1cccnc1-c1ccc(CNc2cc(NC[C@H]3CCNC[C@@H]3O)nc3c(C4CC4)cnn23)cc1   0.34
6  FC1(CNc2cc(NCc3ccc(-c4ccccn4)cc3)n3ncc(C4CC4)c3n2)CCNCC1   1.13
7  O[C@H]1CNCC[C@@H]1CNc1cc(NCc2ccc(-c3ncccc3OC(F)(F)F)cc2)n2ncc(C3CC3)c2n1   0.99
8  c1ccc(-c2ccc(CNc3cc(N[C@H]4CCCNC4)nc4c(C5CC5)cnn34)cc2)nc1   0.43
9  CO[C@H]1CNCC[C@@H]1CNc1cc(NCc2ccc(-c3ccccn3)cc2)n2ncc(C3CC3)c2n1   0.94

Record log10 of IC50 for all entries; do not skip any.
1. N#Cc1cnn2c(NCc3ccc(-c4ccccc4)cc3F)cc(N[C@H]3CCNC3)nc12
2. O[C@H]1CNCC[C@@H]1CNc1cc(NCc2ccc(-c3ncco3)cc2)n2ncc(C3CC3)c2n1

stdout:
1: 0.15; 2: 0.11

Record log10 of IC50 for all entries; do not skip any.
1. CC(C)c1cnn2c(NCc3ccc(-c4ccccn4)cc3)cc(NC[C@H]3CCNC[C@@H]3O)nc12
2. c1ccc(-c2ccc(CNc3cc(O[C@H]4CCCNC4)nc4c(C5CC5)cnn34)cc2)nc1
3. c1ccc(-c2ccc(CNc3cc(C4CNC4)nc4c(C5CC5)cnn34)cc2)nc1
4. O[C@H]1CNCC[C@@H]1CNc1cc(NCc2ccc(-c3ccccn3)cc2)n2ncc(Cl)c2n1
5. O[C@H]1CNCC[C@@H]1CNc1cc(NCc2cc(F)c(-c3ccccn3)cn2)n2ncc(C3CC3)c2n1
6. O[C@H]1CNCC[C@@H]1CNc1cc(NCc2ccc(-c3ccccn3)cn2)n2ncc(C3CC3)c2n1
7. O[C@H]1CNCC[C@@H]1CNc1cc(NCc2ccc(-c3ccccc3)cn2)n2ncc(C3CC3)c2n1
8. c1cnc(-c2ccc(CNc3cc(N[C@H]4CCNC4)nc4c(C5CC5)cnn34)cc2)nc1

stdout:
[0.45, 0.08, 0.84, -0.70, 0.18, 0.88, 1.05, 0.67]

Record log10 of IC50 for all entries; do not skip any.
1. O[C@H]1CNCC[C@@H]1CNc1cc(NCc2ccc(-c3ccccc3)cc2)n2ncc(C3CC3)c2n1
2. c1ccc(-c2ccc(CNc3cc(N[C@@H]4CCCNC4)nc4c(C5CC5)cnn34)cc2)nc1
3. N#Cc1cnn2c(NCc3ccc(-c4ccccn4)cc3)cc(NC[C@H]3CCNC[C@@H]3O)nc12
4. c1ccc(-c2ccc(CNc3cc(N4CCOCC4)nc4c(C5CC5)cnn34)cc2)nc1
5. c1ccc(-c2ccc(CNc3cc(O[C@H]4CCNC4)nc4c(C5CC5)cnn34)cc2)nc1
6. N#Cc1cnn2c(NCc3ccc(-c4ncccn4)cc3)cc(N[C@H]3CCCNC3)nc12

stdout:
1: 1.10; 2: 1.52; 3: 0.90; 4: 1.72; 5: 0.51; 6: -0.05

Record log10 of IC50 for all entries; do not skip any.
1. CN(C[C@H]1CCNC[C@@H]1O)c1cc(NCc2ccc(-c3ccccn3)cc2)n2ncc(C3CC3)c2n1
2. c1csc(-c2ccc(CNc3cc(N[C@H]4CCNC4)nc4c(C5CC5)cnn34)cc2)n1

stdout:
1. 0.40
2. 0.91
